The origin of these recorded values is ChEMBL document CHEMBL1149264.

Activity overview
test system: Syrian golden hamster; experiment: Effect on LDL level in hypercholesterolemic golden Syrian hamster; type: functional, Mesocricetus auratus; design: unit not given here
Simply state the number, no unit and no words.

CC(C)(Sc1cc(C(C)(C)C)c(O)c(C(C)(C)C)c1)Sc1ccc(C(C)(C)C)c(OC[C@@H](O)[C@@H](O)[C@H](O)[C@@H](O)CO)c1C(C)(C)C ... 30

Value of Activity reported for the compound CC(C)(Sc1cc(C(C)(C)C)c(O)c(C(C)(C)C)c1)Sc1ccc(C(C)(C)C)c(OC[C@H]2OC(O)[C@H](O)[C@@H](O)[C@@H]2O)c1C(C)(C)C (stereo partly specified) is 9

The reported Activity of the compound CC(C)(Sc1cc(C(C)(C)C)c(O)c(C(C)(C)C)c1)Sc1cc(C(C)(C)C)c(OCC(=O)O)c(C(C)(C)C)c1 was 18

The recorded Activity for CC(C)(Sc1cc(C(C)(C)C)c(O)c(C(C)(C)C)c1)Sc1ccc(C(C)(C)C)c(OC[C@@H](O)[C@@H](O)[C@@H](O)CO)c1C(C)(C)C is 338

The measured Activity associated with CC(C)(Sc1cc(C(C)(C)C)c(O)c(C(C)(C)C)c1)Sc1ccc(C(C)(C)C)c(OCC(O)CNCC(=O)O)c1C(C)(C)C (stereo unspecified) reads 190

Record CC(C)(Sc1cc(C(C)(C)C)c(O)c(C(C)(C)C)c1)Sc1ccc(C(C)(C)C)c(OC[C@@H](O)[C@@H](O)[C@@H](O)C(=O)O)c1C(C)(C)C , field Activity: 175
